Molecular target: UniProt O13428
Sequence (O13428 as listed by the source): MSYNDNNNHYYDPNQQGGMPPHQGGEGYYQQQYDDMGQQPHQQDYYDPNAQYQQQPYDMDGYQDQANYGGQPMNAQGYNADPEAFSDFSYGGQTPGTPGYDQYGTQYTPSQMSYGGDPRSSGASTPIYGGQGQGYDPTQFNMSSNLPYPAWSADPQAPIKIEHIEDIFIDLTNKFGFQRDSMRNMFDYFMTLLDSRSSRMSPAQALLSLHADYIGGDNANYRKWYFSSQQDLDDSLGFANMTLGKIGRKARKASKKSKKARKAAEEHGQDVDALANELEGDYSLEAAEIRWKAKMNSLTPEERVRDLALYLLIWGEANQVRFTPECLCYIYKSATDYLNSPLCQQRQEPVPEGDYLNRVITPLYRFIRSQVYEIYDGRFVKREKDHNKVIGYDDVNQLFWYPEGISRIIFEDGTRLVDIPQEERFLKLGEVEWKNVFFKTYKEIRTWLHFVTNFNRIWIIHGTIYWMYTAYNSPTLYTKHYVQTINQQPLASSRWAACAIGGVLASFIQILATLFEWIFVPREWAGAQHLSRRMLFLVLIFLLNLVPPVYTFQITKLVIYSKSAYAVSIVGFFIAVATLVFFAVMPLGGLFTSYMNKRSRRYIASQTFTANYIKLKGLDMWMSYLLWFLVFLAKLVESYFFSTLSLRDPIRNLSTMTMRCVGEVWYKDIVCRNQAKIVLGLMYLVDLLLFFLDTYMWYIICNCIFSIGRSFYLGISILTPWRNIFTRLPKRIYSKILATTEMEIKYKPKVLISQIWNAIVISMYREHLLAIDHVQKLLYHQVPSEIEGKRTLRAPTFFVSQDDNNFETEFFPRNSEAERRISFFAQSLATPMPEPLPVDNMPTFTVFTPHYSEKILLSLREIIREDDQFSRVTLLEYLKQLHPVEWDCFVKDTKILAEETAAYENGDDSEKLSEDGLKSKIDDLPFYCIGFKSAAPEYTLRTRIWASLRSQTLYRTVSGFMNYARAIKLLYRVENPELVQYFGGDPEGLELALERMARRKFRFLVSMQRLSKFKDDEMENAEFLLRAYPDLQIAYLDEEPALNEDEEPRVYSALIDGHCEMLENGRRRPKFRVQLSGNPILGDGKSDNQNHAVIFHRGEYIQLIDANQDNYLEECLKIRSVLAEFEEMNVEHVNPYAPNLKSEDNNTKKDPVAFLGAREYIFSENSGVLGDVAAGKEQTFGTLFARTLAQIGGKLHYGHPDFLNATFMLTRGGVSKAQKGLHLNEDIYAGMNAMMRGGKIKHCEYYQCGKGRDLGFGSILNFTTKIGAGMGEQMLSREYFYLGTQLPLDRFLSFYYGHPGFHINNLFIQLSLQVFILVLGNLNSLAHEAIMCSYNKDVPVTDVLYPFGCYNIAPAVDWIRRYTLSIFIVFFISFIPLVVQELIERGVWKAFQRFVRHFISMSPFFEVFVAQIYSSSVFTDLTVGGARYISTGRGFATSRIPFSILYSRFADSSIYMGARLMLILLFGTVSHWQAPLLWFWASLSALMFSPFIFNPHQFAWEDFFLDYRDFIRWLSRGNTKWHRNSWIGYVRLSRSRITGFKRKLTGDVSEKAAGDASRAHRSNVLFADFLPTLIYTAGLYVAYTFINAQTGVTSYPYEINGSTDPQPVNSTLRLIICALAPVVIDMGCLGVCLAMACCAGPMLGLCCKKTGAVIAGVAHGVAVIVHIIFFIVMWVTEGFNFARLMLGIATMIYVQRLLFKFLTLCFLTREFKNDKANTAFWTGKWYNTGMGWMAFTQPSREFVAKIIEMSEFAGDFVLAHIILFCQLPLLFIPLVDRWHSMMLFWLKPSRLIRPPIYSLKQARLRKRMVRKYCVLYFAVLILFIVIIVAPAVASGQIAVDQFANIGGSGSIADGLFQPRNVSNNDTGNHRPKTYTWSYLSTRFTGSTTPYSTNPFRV
Assay: In vitro inhibition of glucan synthase obtained from Candida albicans at a concentration of 10 ug/mL.
Numbered stars: 1 amine (or outer) side, 2 acyl side, 3 side chain; on linkers, the order of the positions; unused ones are H or OH. Bridge positions count the residues as written; N and C are the ends. Square brackets hold non-standard residues; d marks the D form. Peptide text beside a SMILES is read from it. * marks the point of attachment. Orn(4R-OH,5R-OH) = O=C([C@H](C[C@@H](O)[C@@H](O)N[*:3])N[*:1])[*:2]; hTyr(3S-OH,4S-OH) = N[C@H](C(=O)O)[C@H](O)[C@@H](O)c1ccc(O)cc1; X4 = CC(C)(C)OCCOc1ccc(-c2ccc(-c3ccc(C(=O)*)cc3)cc2)cc1; Pro(3S-OH,4S-Me) = C[C@H]1CN[C@H](C(=O)O)[C@H]1O; X14 = COc1ccc(C#Cc2ccc(-c3ccc(C(=O)*)cc3)cc2)cc1; X15 = CCCCCCOc1ccc2cc(C(=O)*)ccc2c1; Hyp = O=C(O)[C@@H]1C[C@@H](O)CN1
outcome.measure: inhibition (%)
Quick reminder: number only, in %, skip the unit.

Observe how each entry below is paired with its result.
INSERT INTO measurements (compound, system_under_test, u, measured) VALUES
  ('COc1ccc(C#Cc2ccc(-c3ccc(C(=O)N[C@H]4C[C@@H](O)[C@@H](O)NC(=O)[C@@H]5[C@@H](O)[C@@H](C)CN5C(=O)[C@H]([C@@H](C)O)NC(=O)[C@H]([C@H](O)[C@@H](O)c5ccc(O)cc5)NC(=O)[C@@H]5C[C@@H](O)CN5C(=O)[C@H]([C@@H](C)O)NC4=O)cc3)cc2)cc1 (X14-[Orn(4R-OH,5R-OH)]T[Hyp][hTyr(3S-OH,4S-OH)]T[Pro(3S-OH,4S-Me)]; lactam 1-C)', 'UniProt O13428', '%', 81),
  ('C[C@@H](O)[C@@H]1NC(=O)[C@H]([C@H](O)[C@@H](O)c2ccc(O)cc2)NC(=O)[C@@H]2C[C@@H](O)CN2C(=O)[C@H]([C@@H](C)O)NC(=O)[C@@H](NC(=O)c2ccc(-c3ccc(-c4ccc(OCCOC(C)(C)C)cc4)cc3)cc2)C[C@@H](O)[C@@H](O)NC(=O)[C@@H]2[C@@H](O)[C@@H](C)CN2C1=O (X4-[Orn(4R-OH,5R-OH)]T[Hyp][hTyr(3S-OH,4S-OH)]T[Pro(3S-OH,4S-Me)]; lactam 1-C)', 'UniProt O13428', '%', 76.1);

Read the next record carefully.
Give inhibition; test system UniProt O13428; compound CCCCCCOc1ccc2cc(C(=O)N[C@H]3C[C@@H](O)[C@@H](O)NC(=O)[C@@H]4[C@@H](O)[C@@H](C)CN4C(=O)[C@H]([C@@H](C)O)NC(=O)[C@H]([C@H](O)[C@@H](O)c4ccc(O)cc4)NC(=O)[C@@H]4C[C@@H](O)CN4C(=O)[C@H]([C@@H](C)O)NC3=O)ccc2c1 (X15-[Orn(4R-OH,5R-OH)]T[Hyp][hTyr(3S-OH,4S-OH)]T[Pro(3S-OH,4S-Me)]; lactam 1-C) 77.7
